Listing of entries alongside the reported protein stability index.
B1: MIA2 (parent)
chain: SVIEPVQESSFRSRKIAVEDENDL

variants of: B1; assay: protein stability index of a GFP-peptide fusion (GPS, HEK-293T) (PSI 1-6); higher = more stable; conditions: c terminus: a fixed tail appended;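 also: lentivirally expressed fusions sorted by FACS into six bins by GFP to DsRed ratio, PSI derived from sequencing read proportions per bin multiplied by bin number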
Field format: numeric only.

Solved cases (5 shown):
{"columns": ["Var", "protein stability index"],
 "data": [
  ["P5H", 4.98],
  ["S13C", 5.05],
  ["K15T", 5.11],
  ["Q7K", 4.98],
  ["Q7R", 4.92]
]}

Quick one: protein stability index for `E8C` ?
4.97

Quick one: protein stability index for `N22I` ?
4.89

Quick one: protein stability index for `S13Y` ?
5.12

Quick one: protein stability index for `D23H` ?
4.95

Quick one: protein stability index for `E19A` ?
5.13

Quick one: protein stability index for `N22R` ?
5.09
